B1: glmS ribozyme (parent)
chain: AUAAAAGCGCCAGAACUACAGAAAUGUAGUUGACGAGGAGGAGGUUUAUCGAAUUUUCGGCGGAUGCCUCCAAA

variants of: B1; assay: self-cleavage kobs at 2500 uM GlcN6P; higher = faster cleavage; RNA array; conditions: with glucosamine-6-phosphate
Variants at the floor of the assay were thinned out.
Listed below: self-cleavage kobs at 2500 uM GlcN6P values for each entry.

Completed entries (count: 4):
| mutation list | self-cleavage kobs at 2500 uM GlcN6P |
| --- | --- |
| A53U G59A | 3.5e-05 s⁻¹ |
| G44A U49A G62U | < 1e-05 s⁻¹ |
| A33U G43U U65C | < 1e-05 s⁻¹ |
| G35C C67G | < 1e-05 s⁻¹ |

So what does the record say about self-cleavage kobs at 2500 uM GlcN6P for C10G U46A U55C ?
< 1e-05 s⁻¹

Another variant: G9A G41U
< 1e-05 s⁻¹

Another variant: U47G A48U U65G
0.000213 s⁻¹

Another variant: A6G A12U C67U
0.000919 s⁻¹

Another variant: A12G A39U A42C
0.000119 s⁻¹

Another variant: A6G U31A U49A
< 1e-05 s⁻¹

Another variant: C50G U57C C71G
0.000255 s⁻¹

Another variant: G7A A15G U30C A48G U57A
< 1e-05 s⁻¹
